Entries and their Stimulated ATPase (% of DMSO)
target: Cysteineless Mouse MDR3 P-glycoprotein (Mus musculus, UniProt P21447, C1070A/C1121A/C1223A/C133A/C427A/C638A/C669A/C713A/C952A); construct: made in house; host or cells: Pichia pastoris; test: ATP hydrolysis by purified P-glycoprotein, basal and verapamil-stimulated; type: biochemical; conditions: in the presence of verapamil; ± standard deviation
Sequence (P21447 whole entry C133A/C427A/C638A/C669A/C713A/C952A/C1070A/C1121A/C1223A): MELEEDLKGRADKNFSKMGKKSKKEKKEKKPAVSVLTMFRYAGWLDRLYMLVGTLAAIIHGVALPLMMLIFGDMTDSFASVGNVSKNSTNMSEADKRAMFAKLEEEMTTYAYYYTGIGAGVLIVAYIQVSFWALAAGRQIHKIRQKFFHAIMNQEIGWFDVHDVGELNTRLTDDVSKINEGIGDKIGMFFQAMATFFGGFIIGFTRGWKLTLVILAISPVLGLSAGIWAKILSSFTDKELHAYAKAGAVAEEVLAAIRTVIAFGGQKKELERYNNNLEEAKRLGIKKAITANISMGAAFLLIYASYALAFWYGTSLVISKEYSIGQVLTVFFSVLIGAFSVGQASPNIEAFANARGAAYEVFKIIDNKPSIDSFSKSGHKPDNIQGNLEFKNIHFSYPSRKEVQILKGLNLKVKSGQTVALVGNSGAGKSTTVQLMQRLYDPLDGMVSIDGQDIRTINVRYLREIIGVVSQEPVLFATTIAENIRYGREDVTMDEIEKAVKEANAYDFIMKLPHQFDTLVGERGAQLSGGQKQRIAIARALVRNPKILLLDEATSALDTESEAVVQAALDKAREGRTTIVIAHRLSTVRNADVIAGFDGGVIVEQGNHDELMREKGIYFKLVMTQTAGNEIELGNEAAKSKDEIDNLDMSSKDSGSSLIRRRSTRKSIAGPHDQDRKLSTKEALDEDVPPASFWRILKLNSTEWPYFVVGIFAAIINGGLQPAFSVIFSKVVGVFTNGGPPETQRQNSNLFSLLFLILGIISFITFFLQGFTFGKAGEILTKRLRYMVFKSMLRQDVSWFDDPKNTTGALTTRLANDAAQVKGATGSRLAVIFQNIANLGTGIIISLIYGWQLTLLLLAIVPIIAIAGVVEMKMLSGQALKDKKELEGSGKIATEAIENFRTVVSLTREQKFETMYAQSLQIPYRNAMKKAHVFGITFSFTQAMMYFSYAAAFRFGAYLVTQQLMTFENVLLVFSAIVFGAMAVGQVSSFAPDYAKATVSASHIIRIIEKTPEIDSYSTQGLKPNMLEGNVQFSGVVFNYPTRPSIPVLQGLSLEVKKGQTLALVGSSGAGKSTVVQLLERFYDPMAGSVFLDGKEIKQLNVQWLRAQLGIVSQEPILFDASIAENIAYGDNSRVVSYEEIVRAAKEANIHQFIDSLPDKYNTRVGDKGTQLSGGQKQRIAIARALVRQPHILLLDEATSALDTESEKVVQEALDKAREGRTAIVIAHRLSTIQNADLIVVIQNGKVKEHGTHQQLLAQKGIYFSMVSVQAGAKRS
ENDPOINT: Stimulated ATPase (% of DMSO)

1) Cc1cc(C)c(-c2cc(NC(=O)CSCC(=O)Nc3ccc4ncsc4c3)n(-c3ccccc3)n2)cc1C [SMU29-255]
123 ± 15 % of DMSO
2) Cc1cc(C)c(-c2cc(NC(=O)CSCC(=O)Nc3ccc4ccccc4c3)n(-c3ccccc3)n2)cc1C [SMU29-231]
141 ± 18 % of DMSO
3) Cc1cc(C)c(-c2cc(NC(=O)CSCC(=O)N3c4ccccc4CCc4ccccc43)n(-c3ccccc3)n2)cc1C [SMU29-227]
50 ± 2 % of DMSO
4) COc1cc(NC(=O)CSCC(=O)Nc2cc(-c3cc(C)c(C)cc3C)nn2-c2ccccc2)cc(OC)c1OC [SMU29-238]
194 ± 22 % of DMSO
5) Cc1cc(C)c(-c2cc(NC(=O)CSCC(=O)NC34CC5CC(CC(C5)C3)C4)n(-c3ccccc3)n2)cc1C [SMU29-278]
41 ± 7 % of DMSO
6) Cc1cc(C)c(-c2cc(NC(=O)CSc3nnc4c(n3)[nH]c3ccccc34)n(-c3ccccc3)n2)cc1C [SMU29-541]
68 ± 7 % of DMSO
7) Cc1cc(C)c(-c2cc(NC(=O)CSCC(=O)NCc3ccc(F)cc3)n(-c3ccccc3)n2)cc1C [SMU29-286]
98 ± 2 % of DMSO

----------
tested on: DU145TXR; test: Potentiation of 500 nM paclitaxel cytotoxicity (MTT); type: cell-based, human; settings: in the presence of 500 nM paclitaxel, 48 hours; read-out: PC50, potentiation concentration of inhibitor resulting in 50% reduction in cell viability
ENDPOINT: EC50

1. Cc1cc(C)c(-c2cc(NC(=O)CSc3n[nH]c(C4CC4)n3)n(-c3ccccc3)n2)cc1C
2330 nM
2. CCC(C(=O)N1CCN(c2ccc(OC)cc2)CC1)n1nc(C)c2sc3ccccc3c2c1=O (centres unmarked)
570 nM

----------
molecular target: Cysteineless Mouse MDR3 P-glycoprotein (Mus musculus, UniProt P21447, C1070A/C1121A/C1223A/C133A/C427A/C638A/C669A/C713A/C952A); construct: made in house; host or cells: Pichia pastoris; assay: ATP hydrolysis by purified P-glycoprotein, basal and verapamil-stimulated; format: biochemical; conditions: without added transport substrate; ± standard deviation
ENDPOINT: Basal ATPase (% of DMSO)

1) Cc1cc(C)c(-c2cc(NC(=O)CSCC(=O)N3c4ccccc4CCc4ccccc43)n(-c3ccccc3)n2)cc1C
88 ± 4 % of DMSO
2) Cc1cc(C)c(-c2cc(NC(=O)CSc3n[nH]c(C4CC4)n3)n(-c3ccccc3)n2)cc1C
95 ± 11 % of DMSO
3) Cc1cc(C)c(-c2cc(NC(=O)CSCC(=O)NCc3ccc(F)cc3)n(-c3ccccc3)n2)cc1C
143 ± 32 % of DMSO
4) Cc1cc(C)c(-c2cc(NC(=O)CSCC(=O)NC(c3ccccc3)c3ccccc3)n(-c3ccccc3)n2)cc1C
148 ± 4 % of DMSO
5) Cc1cc(C)c(-c2cc(NC(=O)CSc3nnc4c(n3)[nH]c3ccccc34)n(-c3ccccc3)n2)cc1C
101 ± 12 % of DMSO
6) Cc1cc(C)c(-c2cc(NC(=O)CSCC(=O)Nc3ccc4ncsc4c3)n(-c3ccccc3)n2)cc1C
355 ± 7 % of DMSO
7) Cc1cc(C)c(-c2cc(NC(=O)CSCC(=O)NC34CC5CC(CC(C5)C3)C4)n(-c3ccccc3)n2)cc1C
78 ± 4 % of DMSO

----------
system: DU145TXR; experiment: Resensitization of DU145TXR to paclitaxel by 29 variants (MTT cell viability); assay type: cell-based, human; settings: 7 μM inhibitor; vs PTX alone
ENDPOINT: Fold vs PTX

1. Cc1cc(C)c(-c2cc(NC(=O)CSCC(=O)Nc3ccc4ccccc4c3)n(-c3ccccc3)n2)cc1C
303 Fold
2. Cc1cc(C)c(-c2cc(NC(=O)CSc3n[nH]c(C4CC4)n3)n(-c3ccccc3)n2)cc1C
36 Fold
3. Cc1cc(C)c(-c2cc(NC(=O)CSc3nnc4c(n3)[nH]c3ccccc34)n(-c3ccccc3)n2)cc1C
125 Fold
4. Cc1cc(C)c(-c2cc(NC(=O)CSCC(=O)c3ccc4c(c3)Cc3ccccc3-4)n(-c3ccccc3)n2)cc1C
34 Fold
5. Cc1cc(C)c(-c2cc(NC(=O)CSCC(=O)N3c4ccccc4CCc4ccccc43)n(-c3ccccc3)n2)cc1C
353 Fold
6. Cc1cc(C)c(-c2cc(NC(=O)CSc3cccc(NC(=O)c4cncc(Br)c4)c3)n(-c3ccccc3)n2)cc1C
236 Fold

----------
Reported values of IC50 for individual entries
test system: DU145; assay: Intrinsic toxicity, MTT survival; assay type: cell-based; conditions: Homo sapiens, DU-145, 48 hours, ± standard error
ENDPOINT: IC50 (µM)

1) Cc1cc(C)c(-c2cc(NC(=O)CSc3n[nH]c(C4CC4)n3)n(-c3ccccc3)n2)cc1C [SMU-29]
33.4
2) CCC(C(=O)N1CCN(c2ccc(OC)cc2)CC1)n1nc(C)c2sc3ccccc3c2c1=O (stereo not drawn) [SMU-34]
47.2
3) COc1ccc(CCN(C)CCCC(C#N)(c2ccc(OC)c(OC)c2)C(C)C)cc1OC (stereo not drawn) [Verapamil, verapamil, reference compound]
74.5

----------
biological target: Normal Human MDR1 P-glycoprotein (Homo sapiens, UniProt P08183); assay: ATP hydrolysis by human P-gp assembled into membrane nanodiscs; assay type: biochemical; details: human MDR1 P-gp in nanodiscs, basal
Sequence (P08183 whole entry): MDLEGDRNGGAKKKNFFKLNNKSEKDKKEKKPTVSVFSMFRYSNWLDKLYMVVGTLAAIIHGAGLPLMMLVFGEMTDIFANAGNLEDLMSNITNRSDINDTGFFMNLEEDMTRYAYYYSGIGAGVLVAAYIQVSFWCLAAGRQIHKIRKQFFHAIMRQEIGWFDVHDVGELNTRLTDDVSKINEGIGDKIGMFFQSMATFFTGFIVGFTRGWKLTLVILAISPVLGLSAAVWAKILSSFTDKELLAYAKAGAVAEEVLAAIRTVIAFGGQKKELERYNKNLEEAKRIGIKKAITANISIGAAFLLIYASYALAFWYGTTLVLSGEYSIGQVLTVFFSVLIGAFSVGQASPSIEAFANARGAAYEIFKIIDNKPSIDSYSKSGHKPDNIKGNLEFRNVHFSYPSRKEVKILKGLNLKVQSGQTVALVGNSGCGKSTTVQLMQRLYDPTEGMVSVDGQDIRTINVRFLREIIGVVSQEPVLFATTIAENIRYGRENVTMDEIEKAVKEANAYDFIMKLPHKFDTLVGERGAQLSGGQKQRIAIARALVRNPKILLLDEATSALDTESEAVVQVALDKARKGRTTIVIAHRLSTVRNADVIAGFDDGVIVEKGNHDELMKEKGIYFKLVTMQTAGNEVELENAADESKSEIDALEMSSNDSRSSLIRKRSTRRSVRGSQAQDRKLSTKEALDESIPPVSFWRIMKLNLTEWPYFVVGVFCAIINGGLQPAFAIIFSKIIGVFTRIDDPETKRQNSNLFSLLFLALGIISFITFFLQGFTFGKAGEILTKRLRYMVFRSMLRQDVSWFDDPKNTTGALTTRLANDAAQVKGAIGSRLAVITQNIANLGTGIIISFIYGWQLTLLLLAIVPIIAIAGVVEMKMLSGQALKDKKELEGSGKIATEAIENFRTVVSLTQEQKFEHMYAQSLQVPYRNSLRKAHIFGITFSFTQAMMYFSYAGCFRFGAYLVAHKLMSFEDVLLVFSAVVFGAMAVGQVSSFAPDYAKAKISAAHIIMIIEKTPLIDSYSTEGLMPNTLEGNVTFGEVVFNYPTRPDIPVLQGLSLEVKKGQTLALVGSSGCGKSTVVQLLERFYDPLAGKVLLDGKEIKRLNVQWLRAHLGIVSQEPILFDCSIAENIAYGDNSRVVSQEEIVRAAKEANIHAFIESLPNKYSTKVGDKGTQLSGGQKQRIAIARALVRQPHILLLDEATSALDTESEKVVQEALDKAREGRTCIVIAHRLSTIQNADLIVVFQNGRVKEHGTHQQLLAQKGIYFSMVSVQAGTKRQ
ENDPOINT: Basal ATPase (% of DMSO)

1) Cc1cc(C)c(-c2cc(NC(=O)CSCC(=O)Nc3ccc4ncsc4c3)n(-c3ccccc3)n2)cc1C
84 ± 9 % of DMSO
2) Cc1cc(C)c(-c2cc(NC(=O)CSc3nnc4c(n3)[nH]c3ccccc34)n(-c3ccccc3)n2)cc1C
87 ± 9 % of DMSO
3) Cc1cc(C)c(-c2cc(NC(=O)CSCC(=O)c3ccc4c(c3)Cc3ccccc3-4)n(-c3ccccc3)n2)cc1C
69 ± 8 % of DMSO
4) Cc1cc(C)c(-c2cc(NC(=O)CSCC(=O)Nc3ccc4ccccc4c3)n(-c3ccccc3)n2)cc1C
70 ± 4 % of DMSO
5) Cc1cc(C)c(-c2cc(NC(=O)CSCC(=O)NCc3ccc(F)cc3)n(-c3ccccc3)n2)cc1C
95 ± 3 % of DMSO
6) COc1cc(NC(=O)CSCC(=O)Nc2cc(-c3cc(C)c(C)cc3C)nn2-c2ccccc2)cc(OC)c1OC
89 ± 7 % of DMSO
7) Cc1cc(C)c(-c2cc(NC(=O)CSc3cccc(NC(=O)c4cncc(Br)c4)c3)n(-c3ccccc3)n2)cc1C
72 ± 9 % of DMSO
8) Cc1cc(C)c(-c2cc(NC(=O)CSc3n[nH]c(C4CC4)n3)n(-c3ccccc3)n2)cc1C
88 ± 9 % of DMSO
9) Cc1cc(C)c(-c2cc(NC(=O)CSCC(=O)NC(c3ccccc3)c3ccccc3)n(-c3ccccc3)n2)cc1C
76 ± 8 % of DMSO
10) Cc1cc(C)c(-c2cc(NC(=O)CSCC(=O)NC34CC5CC(CC(C5)C3)C4)n(-c3ccccc3)n2)cc1C
74 ± 6 % of DMSO
11) Cc1cc(C)c(-c2cc(NC(=O)CSCC(=O)N3c4ccccc4CCc4ccccc43)n(-c3ccccc3)n2)cc1C
83 ± 7 % of DMSO

----------
target: Cysteineless Mouse MDR3 P-glycoprotein (Mus musculus, UniProt P21447, C1070A/C1121A/C1223A/C133A/C427A/C638A/C669A/C713A/C952A); construct: made in house; host or cells: Pichia pastoris; assay: ATP hydrolysis by purified P-glycoprotein, basal and verapamil-stimulated; format: biochemical; conditions: in the presence of verapamil; ± standard deviation
ENDPOINT: Stimulated ATPase (% of DMSO)

1. Cc1cc(C)c(-c2cc(NC(=O)CSc3cccc(NC(=O)c4cncc(Br)c4)c3)n(-c3ccccc3)n2)cc1C
62 ± 5 % of DMSO
2. Cc1cc(C)c(-c2cc(NC(=O)CSc3n[nH]c(C4CC4)n3)n(-c3ccccc3)n2)cc1C
49 ± 2 % of DMSO
3. Cc1cc(C)c(-c2cc(NC(=O)CSCC(=O)c3ccc4c(c3)Cc3ccccc3-4)n(-c3ccccc3)n2)cc1C
108 ± 2 % of DMSO
4. Cc1cc(C)c(-c2cc(NC(=O)CSCC(=O)NC(c3ccccc3)c3ccccc3)n(-c3ccccc3)n2)cc1C
116 ± 4 % of DMSO
